Target: T1, human CD19 (on Raji cells, CD19+ homo sapiens Burkitt's lymphoma) (human, UniProt P15391 20-556)
T1 construct: whole, on cells; also called B-lymphocyte antigen CD19; B4
T1 sequence (looked up): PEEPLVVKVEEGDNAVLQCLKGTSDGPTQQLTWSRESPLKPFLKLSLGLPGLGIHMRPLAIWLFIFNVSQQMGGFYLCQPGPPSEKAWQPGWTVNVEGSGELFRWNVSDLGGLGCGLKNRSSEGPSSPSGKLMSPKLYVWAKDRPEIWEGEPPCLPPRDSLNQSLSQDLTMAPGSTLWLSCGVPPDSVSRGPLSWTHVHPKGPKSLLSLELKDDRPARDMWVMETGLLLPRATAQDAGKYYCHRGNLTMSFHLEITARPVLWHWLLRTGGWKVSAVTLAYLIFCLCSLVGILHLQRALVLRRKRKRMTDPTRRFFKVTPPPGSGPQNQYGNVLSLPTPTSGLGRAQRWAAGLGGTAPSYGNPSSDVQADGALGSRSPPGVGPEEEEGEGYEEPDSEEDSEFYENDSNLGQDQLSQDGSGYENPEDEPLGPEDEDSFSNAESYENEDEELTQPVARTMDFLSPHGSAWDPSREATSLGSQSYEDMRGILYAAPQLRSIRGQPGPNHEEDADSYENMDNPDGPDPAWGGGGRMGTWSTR
Test: flow cytometry titration on Raji cells, anti-His FITC; scFv at log(nM) 0.614394
MEASURED QUANTITY: geometric mean (FACS titration)

[[record]]
binder = "NS-scFv (scFv, leader left out here) scFv: DIQMTQSPSSLSASVGDRVTITCRASQDISKYLNWYQQKPGKAVKLLIYHTSRLHSGVPSRFSGSGSGTDYTLTISSLQPEDIATYFCQQGNTLPYTFGGGTKLEIKGSTSGSGKPGSGEGSTKGQVQLQESGPGLVKPSETLSVTCTVSGVSLPDYGVSWIRQPPGKGLEWLGVIWGSETTYYNSALKSRLTISKDTSKNQVFLKMSSLTAADTAIYYCAKHYYYGGSYAMDYWGQGTLVTVSSHHHHHH"
value_reported = 15.5

